# System: Escherichia coli TOP10
# Method: shrunken log2 fold change of peptide-encoding DNA abundance (4.5 h post-induction vs induction); higher = less antimicrobial activity (less host growth inhibition)
# Conditions: time post-induction: 4.5 h; library: site-saturation at positions 5, 18, 19, 20
Overview of reported shrunken log2 fold change across a group of sequences:
Quick one: just the number, no unit, thanks!

RRIRNRPPRLPRPRPRPPVEPRP; 0.272
RRIRNRPPRLPRPRPRPCQVPRP; -0.106
RRIRVRPPRLPRPRPRPTFAPRP; 0.294
RRIRPRPPRLPRPRPRPRMWPRP; 0.413

Problem: Please tell me: shrunken log2 fold change of RRIRYRPPRLPRPRPRPWIDPRP , system Escherichia coli TOP10?;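 note: peptides expressed intracellularly from a pBAD plasmid library in pooled LB shake-flask culture, induced with 0.3% L-arabinose, DNA abundance read by NGS, three biological replicates, DESeq2 with apeglm shrinkage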
Result: -0.274

Problem: Next sequence up: RRIRSRPPRLPRPRPRPYNYPRP
Result: -0.494

Problem: Next sequence up: RRIRLRPPRLPRPRPRPLWDPRP
Result: 0.466

Problem: Next sequence up: RRIRDRPPRLPRPRPRPGDQPRP
Result: 0.282

Problem: Next sequence up: RRIRIRPPRLPRPRPRPEDWPRP
Result: 0.0775
